I'd be grateful if you could share measured binding signal for these entries.
target: OsWRKY34 (Oryza sativa, UniProt Q0JBA9 1-250); assay: protein-binding microarray (RPBM); PBS, 2% BSA, 51.3 ng/ul salmon testes DNA, 50 uM zinc acetate, 200 nM TF, 25 C, 1 h; high values mean tight binding; details: protein: recombinant; tags: N-terminal polyhistidine and DsRed monomer fusion (pET32a); label: CyDye5-dUTP incorporated in the synthesized complementary strand; 3' TTTTT single-stranded linker to array surface; dsDNA, one strand shown
Sequence (Q0JBA9 entry or part of it): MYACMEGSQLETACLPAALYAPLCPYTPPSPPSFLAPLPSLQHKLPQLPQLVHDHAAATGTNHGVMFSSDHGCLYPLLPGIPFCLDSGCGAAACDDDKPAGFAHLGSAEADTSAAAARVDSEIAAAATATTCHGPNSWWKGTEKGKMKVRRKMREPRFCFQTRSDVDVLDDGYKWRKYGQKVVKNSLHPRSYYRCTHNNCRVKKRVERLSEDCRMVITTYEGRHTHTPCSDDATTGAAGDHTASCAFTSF
Over roughly 68,000 sequences, “fluorescence intensity (a.u.)” has its median near 9,100; the highest 2% begin near 16,000. The sample as a whole holds a higher share of the highest values than the screen did.

Previously resolved entries follow.
CGGGCTCTGGTTTTACCGAATAAATGCTCTGGGCCTAATACGGAGTCACCTAGTGCAG
8020 fluorescence intensity (a.u.)
ATGATTTTTGGGTCATTTGGTTTGTTTTTGACTTTTGCAACGGAGTCACCTAGTGCAG
12100 fluorescence intensity (a.u.)
TGGTGTGTTTTTTGGGATGTTTCGGTAGGTATTTTGTGATCGGAGTCACCTAGTGCAG
12000 fluorescence intensity (a.u.)
TGGCTCCGCCACGTCCTCGTCGCCTGGAACTCGCTCGTCTCGGAGTCACCTAGTGCAG
8680 fluorescence intensity (a.u.)
TGGGGTCATGTTTGTACTTTGGCAACTGGTCGACTTCATACGGAGTCACCTAGTGCAG
18400 fluorescence intensity (a.u.)
CACCTGCCTCCTCCTACCACCAGCCGCCGCCGACGACTAACGGAGTCACCTAGTGCAG
8550 fluorescence intensity (a.u.)
ATATGTTGTTTGACTTTTTTCATAGTCAGAAGTCTATTGGCGGAGTCACCTAGTGCAG
19000 fluorescence intensity (a.u.)
CTCCTCTAACGTACCATAGAGGGACATACGTTTCTGATGTCGGAGTCACCTAGTGCAG
8720 fluorescence intensity (a.u.)

Hey, quick one: what's binding signal for each of these?
1. TCTCTTCTTCTTCTCCAACTTCTTTTTTCTCTTCTTCTTCCGGAGTCACCTAGTGCAG
2. GCTTGGGGTGGAATCGCGTGGACAGCGTGGGCCTCAGTCACGGAGTCACCTAGTGCAG
3. ACCATAAAGCCAAGTTTCATCCATAATCCTTATTTTTCATCGGAGTCACCTAGTGCAG
4. GGGATCTGAGGCGCGTTTCTTAATTTGCCTTCTCTTTGAGCGGAGTCACCTAGTGCAG
5. TAGTGTTGGTTTGATTTTTATATCACTAGAGATGAACTAACGGAGTCACCTAGTGCAG

Reply:
["9680 fluorescence intensity (a.u.)", "12000 fluorescence intensity (a.u.)", "8670 fluorescence intensity (a.u.)", "9220 fluorescence intensity (a.u.)", "8560 fluorescence intensity (a.u.)"]

Hey, quick one: what's binding signal for each of these?
1. CTCCATCTCGCATCTTCTCTTTCTCTTTCTCTTTCTCTTTCGGAGTCACCTAGTGCAG
2. GGTCTATGTCTCTCTGATTATTTCTTTTACTAATTGTTTGCGGAGTCACCTAGTGCAG
3. TTTGTACCCGTTTTCTACTTTTTTTGTTTCATATTATTAACGGAGTCACCTAGTGCAG
4. TCCATCCCATTCCCGCCATCTCTGCATCTTCTTCTTCTTCCGGAGTCACCTAGTGCAG

Reply:
1. 13300 fluorescence intensity (a.u.)
2. 9060 fluorescence intensity (a.u.)
3. 10900 fluorescence intensity (a.u.)
4. 9910 fluorescence intensity (a.u.)

Hey, quick one: what's binding signal for each of these?
1. TTACCTCGCGTACCCTCGCACCCGTCTCCCGCAGACAGATCGGAGTCACCTAGTGCAG
2. TTCCCACCGCTGCCGCTCGTCCCGTCTCACCGATCCCTCCCGGAGTCACCTAGTGCAG
3. AGACTATCATCTTGAGCTTATTCTTCCATTTGCTCCATCTCGGAGTCACCTAGTGCAG
4. GTACTCCTGGTCCGCATCCACCGTCCATCCGCGTACCGCACGGAGTCACCTAGTGCAG

Reply:
1. 8480 fluorescence intensity (a.u.)
2. 10300 fluorescence intensity (a.u.)
3. 8950 fluorescence intensity (a.u.)
4. 11000 fluorescence intensity (a.u.)

Hey, quick one: what's binding signal for each of these?
1. CTCTCTCCTACTGTAGGCCACCACCACCGCGACCGCACGACGGAGTCACCTAGTGCAG
2. TTGTTGTAAAGCTTATGGGTCTACTTTCATATGGTTTTGGCGGAGTCACCTAGTGCAG
3. GGTTATTTATTTTTATTGGTTTCCCCATTACTGTTGACAGCGGAGTCACCTAGTGCAG

Reply:
9340 fluorescence intensity (a.u.)
64100 fluorescence intensity (a.u.)
8360 fluorescence intensity (a.u.)
